Origin of values: ChEMBL document CHEMBL1153929

- assay-text: Chemical stability assessed as half life in pH 8 buffer containing 10% cyclodextrins
- Type: physicochemical
reported-metric: half-life (min)
Write it as a number; the unit min goes unstated.

Give the value of half-life reported for the following: COc1cc(/C=C/C(=O)CC(=O)/C=C/c2ccc(O)c(OC)c2)ccc1O 630

---

Please go through the items and note down their Cmax.
- assay-text: Cmax in healthy Sprague-Dawley rat at 500 mg/kg, po administered as single dose
- Assay type: ADME, organism-based
- Parameters: dose 500 mg/kg, route oral
- measurement-parameters: in vivo
Write it as a number; the unit ng/mL goes unstated.

Give the value of Cmax reported for the following: COc1cc(/C=C/C(=O)CC(=O)/C=C/c2ccc(O)c(OC)c2)ccc1O 91

Give the value of Cmax reported for the following: COc1cc(/C=C/C(=O)/C=C/c2ccc(O)c(OC)c2)ccc1O 822

Give the value of Cmax reported for the following: O=C(/C=C/c1ccccc1Br)/C=C/c1ccccc1Br 4100

---

- assay-text: AUC (0 to t) in healthy Sprague-Dawley rat at 500 mg/kg, po administered as single dose
- Assay type: ADME, organism-based
- Set-up: dose 500 mg/kg, route oral
- measurement-parameters: plasma
Please go through the items and note down their AUC(0-t).
Write it as a number; the unit ng·h/mL goes unstated.

Give the value of AUC(0-t) reported for the following: COc1cc(/C=C/C(=O)CC(=O)/C=C/c2ccc(O)c(OC)c2)ccc1O [CURCUMIN] 275

Give the value of AUC(0-t) reported for the following: O=C(/C=C/c1ccccc1Br)/C=C/c1ccccc1Br 12100

Give the value of AUC(0-t) reported for the following: COc1cc(/C=C/C(=O)/C=C/c2ccc(O)c(OC)c2)ccc1O 2960

---

- assay-text: Metabolic stability in Sprague-Dawley rat plasma assessed as drug recovery at 0.05 ug/ml by RP-HPLC
- Type: ADME, cell-free
- measurement-parameters: read-out: Stability
reported-metric: remaining at 0.05 ug/ml (%)
Write it as a number; the unit % goes unstated.

Give the value of remaining at 0.05 ug/ml reported for the following: COc1cc(/C=C/C(=O)CC(=O)/C=C/c2ccc(O)c(OC)c2)ccc1O 97.7

---

Please go through the items and note down their AUC(0-inf).
- assay-text: AUC (0 to infinity) in healthy Sprague-Dawley rat at 500 mg/kg, po administered as single dose
- Format: ADME, organism-based
- Parameters: dose 500 mg/kg, route oral, time infinity
- measurement-parameters: plasma
Write it as a number; the unit ng·h/mL goes unstated.

Give the value of AUC(0-inf) reported for the following: O=C(/C=C/c1ccccc1Br)/C=C/c1ccccc1Br 14900

Give the value of AUC(0-inf) reported for the following: COc1cc(/C=C/C(=O)CC(=O)/C=C/c2ccc(O)c(OC)c2)ccc1O 672

Give the value of AUC(0-inf) reported for the following: COc1cc(/C=C/C(=O)/C=C/c2ccc(O)c(OC)c2)ccc1O 4910

---

- assay-text: Half life in healthy Sprague-Dawley rat at 500 mg/kg, po administered as single dose
- Assay type: ADME, organism-based
- Set-up: dose 500 mg/kg, route oral
- measurement-parameters: in vivo
reported-metric: half-life (h)
Write it as a number; the unit h goes unstated.

Give the value of half-life reported for the following: COc1cc(/C=C/C(=O)/C=C/c2ccc(O)c(OC)c2)ccc1O 5.96

Give the value of half-life reported for the following: O=C(/C=C/c1ccccc1Br)/C=C/c1ccccc1Br 2.92

Give the value of half-life reported for the following: COc1cc(/C=C/C(=O)CC(=O)/C=C/c2ccc(O)c(OC)c2)ccc1O 2.41
